- testSystem: Aurora kinase C (Homo sapiens) (UniProt Q9UQB9)
- Sequence (Q9UQB9 whole entry): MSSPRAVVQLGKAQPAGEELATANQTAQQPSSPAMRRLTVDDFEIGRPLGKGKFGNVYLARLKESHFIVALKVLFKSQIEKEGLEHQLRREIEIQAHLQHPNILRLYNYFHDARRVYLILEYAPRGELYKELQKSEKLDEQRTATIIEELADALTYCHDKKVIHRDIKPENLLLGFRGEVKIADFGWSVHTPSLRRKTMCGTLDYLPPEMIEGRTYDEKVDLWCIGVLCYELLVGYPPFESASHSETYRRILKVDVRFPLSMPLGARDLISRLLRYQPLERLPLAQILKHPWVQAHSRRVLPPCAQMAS
- reportedConditions: at 1 µM
quantityName: inhibition (%)
Response body: numeric value in %, unit text excluded.

A selection of reference data follows.
q: Observed inhibition on Aurora kinase C (Homo sapiens) (UniProt Q9UQB9) for [O-][S+]1CCN(Cc2ccc(-c3ccc4ncnc(Nc5ccc(OCc6ccccc6)c(Cl)c5)c4c3)o2)CC1 , please.
a: 1.6

q: Notebook: pull reported inhibition for Aurora kinase C (Homo sapiens) (UniProt Q9UQB9), entry COc1cc2ncnc(Nc3ccc(C)c(O)c3)c2cc1OC
a: 4.32

q: Could you share what inhibition was measured for Cc1ccc2c(-c3ccnc(Nc4cccc(C(F)(F)F)c4)n3)c(-c3ccccc3)nn2n1 , tested on Aurora kinase C (Homo sapiens) (UniProt Q9UQB9)?
a: 9.67

Next:
q: Requested read-out inhibition, target or system Aurora kinase C (Homo sapiens) (UniProt Q9UQB9), entry Cc1ccc(O)cc1Nc1ccnc2ccc(S(C)(=O)=O)cc12
a: -0.69

q: Requested read-out inhibition, target or system Aurora kinase C (Homo sapiens) (UniProt Q9UQB9), entry NS(=O)(=O)c1cccc(Nc2cc(-c3ccc(F)cc3)n[nH]2)c1
a: 0.46

q: Notebook: pull reported inhibition for Aurora kinase C (Homo sapiens) (UniProt Q9UQB9), entry Nc1nccc(-c2c(-c3ccc(F)cc3)ncn2CCCN2CCOCC2)n1
a: -2.92

q: For the record COc1cc(/C=N/Nc2ncnc3c2cnn3C(C)C)ccc1O , what value of inhibition is listed for Aurora kinase C (Homo sapiens) (UniProt Q9UQB9)?
a: 13.8

q: Query for Aurora kinase C (Homo sapiens) (UniProt Q9UQB9): what inhibition does the record show for Cc1cc(-c2ccccn2)cc(C)c1/C=C/c1cncc(-c2nn[nH]n2)c1 ?
a: 19.6

q: Form field: inhibition recorded for CN(C)CCCn1c(-c2nonc2N)nc2cnccc21 with Aurora kinase C (Homo sapiens) (UniProt Q9UQB9) (enter value)
a: 6.01

q: Give the reported inhibition for CC(C)c1ccc(Nc2nccc(-c3cnn4ncccc34)n2)cc1 (system: Aurora kinase C (Homo sapiens) (UniProt Q9UQB9)).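 Note: reported value is a mean inhibition of Aurora-C from the GSK PKIS screening panel.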
a: 74.6

q: Hi! What's the reported inhibition for NC(=O)c1cccc(Nc2nccc(Nc3cccc(F)c3)n2)c1 on Aurora kinase C (Homo sapiens) (UniProt Q9UQB9)?
a: 85.2

====

- testSystem: Serine/threonine-protein kinase Nek9 (Homo sapiens) (UniProt Q8TD19)
- Sequence (Q8TD19 whole entry): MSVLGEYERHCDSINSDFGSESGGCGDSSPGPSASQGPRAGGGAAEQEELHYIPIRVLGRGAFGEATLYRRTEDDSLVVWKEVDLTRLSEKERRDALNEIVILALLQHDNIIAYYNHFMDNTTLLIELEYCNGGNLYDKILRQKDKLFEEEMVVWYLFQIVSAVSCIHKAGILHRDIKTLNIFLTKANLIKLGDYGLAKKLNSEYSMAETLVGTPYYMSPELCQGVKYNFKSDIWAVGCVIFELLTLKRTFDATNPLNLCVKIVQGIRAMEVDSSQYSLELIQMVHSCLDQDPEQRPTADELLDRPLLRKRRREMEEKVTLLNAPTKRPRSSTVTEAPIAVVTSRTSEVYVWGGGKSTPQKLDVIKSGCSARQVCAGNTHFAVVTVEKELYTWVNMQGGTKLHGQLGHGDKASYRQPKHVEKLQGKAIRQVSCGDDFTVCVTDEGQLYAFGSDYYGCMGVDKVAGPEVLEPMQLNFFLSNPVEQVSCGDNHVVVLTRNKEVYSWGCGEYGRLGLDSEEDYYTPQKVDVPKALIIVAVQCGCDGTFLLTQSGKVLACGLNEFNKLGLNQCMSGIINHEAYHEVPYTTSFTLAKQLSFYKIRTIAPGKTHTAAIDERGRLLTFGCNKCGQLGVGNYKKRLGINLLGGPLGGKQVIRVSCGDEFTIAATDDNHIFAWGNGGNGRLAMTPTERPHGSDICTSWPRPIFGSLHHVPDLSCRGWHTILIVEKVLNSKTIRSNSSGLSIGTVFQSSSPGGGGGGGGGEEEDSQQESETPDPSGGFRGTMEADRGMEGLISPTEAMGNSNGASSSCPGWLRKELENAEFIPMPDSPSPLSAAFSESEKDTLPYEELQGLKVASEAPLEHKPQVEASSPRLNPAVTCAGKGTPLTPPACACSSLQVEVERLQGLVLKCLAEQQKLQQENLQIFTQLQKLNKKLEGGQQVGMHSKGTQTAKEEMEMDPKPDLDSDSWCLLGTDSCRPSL
- reportedConditions: at 1 µM
quantityName: inhibition (%)
Report the figure in % without appending any unit label.

For orientation, consider the following solved cases.
q: Hi! What's the reported inhibition for Cc1ccc2c(-c3ccnc(Nc4ccc5c(c4)OCCO5)n3)c(-c3ccc(C(F)(F)F)cc3)nn2n1 on Serine/threonine-protein kinase Nek9 (Homo sapiens) (UniProt Q8TD19)?
a: 1.95

q: Which measured inhibition belongs to O=S(=O)(CCOCc1ccc(-c2ccc3ncnc(Nc4ccc(OCc5cccc(F)c5)c(Cl)c4)c3c2)o1)c1ccccc1 , tested on Serine/threonine-protein kinase Nek9 (Homo sapiens) (UniProt Q8TD19)?
a: 0.79

q: Report inhibition for CS(=O)(=O)Nc1cccc(-c2ccc3c(NC(=O)C4CC4)n[nH]c3c2)c1 tested on Serine/threonine-protein kinase Nek9 (Homo sapiens) (UniProt Q8TD19).
a: 3.4

q: Which measured inhibition belongs to COC(=O)Nc1nc2cc(Oc3ccc(NC(=O)Nc4cccc(Br)c4)cc3)ccc2[nH]1 , tested on Serine/threonine-protein kinase Nek9 (Homo sapiens) (UniProt Q8TD19)?
a: 15.4

q: Return inhibition measured with Serine/threonine-protein kinase Nek9 (Homo sapiens) (UniProt Q8TD19) given this molecule: COc1cc(/C=N/Nc2ncnc3c2cnn3C(C)C)ccc1O
a: 5.67

New cases:
q: Kindly state the measured inhibition obtained for Nc1nccc(C#Cc2cncnc2Nc2ccc(OCc3cccc(F)c3)c(Cl)c2)n1 with Serine/threonine-protein kinase Nek9 (Homo sapiens) (UniProt Q8TD19).
a: 1.53

q: Give the reported inhibition for ON=C1CCc2cc(-c3nc(C4CCNCC4)[nH]c3-c3ccncc3)ccc21 (system: Serine/threonine-protein kinase Nek9 (Homo sapiens) (UniProt Q8TD19)).
a: 1.01

q: Form field - read-out: inhibition; system: Serine/threonine-protein kinase Nek9 (Homo sapiens) (UniProt Q8TD19); submitted item: CC(C)c1ccc(Nc2nccc(-c3cnn4ncccc34)n2)cc1;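 note: each value is a mean percent inhibition of NEK9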
a: 11

q: Find inhibition (Serine/threonine-protein kinase Nek9 (Homo sapiens) (UniProt Q8TD19)) for the entry CN(C)CCCn1c(-c2nonc2N)nc2cnccc21
a: 12.3
